System Under Test: UniProt O00487
Sequence (O00487 whole entry, the tested form may be a part): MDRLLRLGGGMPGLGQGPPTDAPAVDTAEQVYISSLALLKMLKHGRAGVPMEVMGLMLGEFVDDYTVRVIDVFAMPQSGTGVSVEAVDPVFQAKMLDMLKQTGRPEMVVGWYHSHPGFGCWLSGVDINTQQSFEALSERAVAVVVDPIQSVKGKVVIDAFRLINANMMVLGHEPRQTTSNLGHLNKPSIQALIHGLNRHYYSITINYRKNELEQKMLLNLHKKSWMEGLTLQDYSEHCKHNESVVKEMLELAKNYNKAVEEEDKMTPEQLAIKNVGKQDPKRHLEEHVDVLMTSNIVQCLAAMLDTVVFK
Assay Method Text: log2 ratio of Biotin-Ahx-Ub-VS probe labelling (fragment/DMSO); higher = less target engagement (more negative = stronger competition), active = hit call of the paper (q ≤ 0.05, log2 ratio ≤ -1)
Details: compound concentration: 200 uM; treatment time: 3 h
log2 ratio of Biotin-Ahx-Ub-VS probe labelling of -0.09 or higher: Criterion met. Under -0.09: Criterion not met.

>  <Compound>
O=C(CCl)N1CC=C(c2c[nH]c3ccccc23)CC1

>  <Assigned Class>
Criterion met

$$$$
>  <Compound>
Cl.Cn1cnc2cc(CNC(=O)CCl)ccc21

>  <Assigned Class>
Criterion met

$$$$
>  <Compound>
O=C(CCl)N1CCCCCC1c1ncon1 (configuration not stated)

>  <Assigned Class>
Criterion met

$$$$
>  <Compound>
Cc1n[nH]c2c1CN(C(=O)CCl)CC2

>  <Assigned Class>
Criterion not met

$$$$
>  <Compound>
Cl.O=C(CCl)N1CCC(Cc2nccs2)C1 (configuration not stated)

>  <Assigned Class>
Criterion not met

$$$$
>  <Compound>
Cc1ccc(-c2nnc(C)[nH]2)c(NC(=O)CCl)c1

>  <Assigned Class>
Criterion not met

$$$$
